# study.system: NAD-dependent protein deacetylase sirtuin-1 (Homo sapiens)
# assay.details: Inhibition of hexa-His-tagged recombinant human SIRT1 expressed in Escherichia coli BL21(DE3) using AMC-labeled Arg-His-Lys-Lys(ac) as substrate assessed as inhibition of deacetylation of peptide after 45 mins by fluorescence assay
measure.name: IC50 (µM)

>  <compound>
c1coc(-c2nnc3sc(C4COc5ccccc5O4)nn23)c1 (configuration not stated)

>  <study.system>
NAD-dependent protein deacetylase sirtuin-1 (Homo sapiens)

>  <IC50 [µM]>
8.9

$$$$

[1] Cc1ccc(OCc2nn3c(-c4ccco4)nnc3s2)cc1C
[2] c1coc(-c2nnc3sc(-c4ccncc4)nn23)c1
Between the two listed entries 1 and 2 , which has its IC50 at the higher number? Record your answer as the label of the chosen record.
2

[a] Cc1ccc(OCc2nn3c(-c4ccco4)nnc3s2)cc1
[b] Cc1cccc(OCc2nn3c(-c4ccco4)nnc3s2)c1
[c] Cc1cccc(-c2nn3c(-c4ccco4)nnc3s2)c1
Arrange these compounds by their IC50, starting with the largest number. Reply: labels, ordered per the request.
b, a, c
(b: 75.3 µM, a: 29.3 µM, c: 7.5 µM)

[a] COc1ccc(OCc2nn3c(-c4ccco4)nnc3s2)cc1
[b] c1coc(-c2nnc3sc(-c4cnccn4)nn23)c1
Between the two listed entries a and b , which has its IC50 at the higher number? Record your answer as the label of the chosen record.
b

* * *

# study.system: NAD-dependent protein deacetylase sirtuin-1 (Homo sapiens)
# Sequence (Q96EB6 whole entry): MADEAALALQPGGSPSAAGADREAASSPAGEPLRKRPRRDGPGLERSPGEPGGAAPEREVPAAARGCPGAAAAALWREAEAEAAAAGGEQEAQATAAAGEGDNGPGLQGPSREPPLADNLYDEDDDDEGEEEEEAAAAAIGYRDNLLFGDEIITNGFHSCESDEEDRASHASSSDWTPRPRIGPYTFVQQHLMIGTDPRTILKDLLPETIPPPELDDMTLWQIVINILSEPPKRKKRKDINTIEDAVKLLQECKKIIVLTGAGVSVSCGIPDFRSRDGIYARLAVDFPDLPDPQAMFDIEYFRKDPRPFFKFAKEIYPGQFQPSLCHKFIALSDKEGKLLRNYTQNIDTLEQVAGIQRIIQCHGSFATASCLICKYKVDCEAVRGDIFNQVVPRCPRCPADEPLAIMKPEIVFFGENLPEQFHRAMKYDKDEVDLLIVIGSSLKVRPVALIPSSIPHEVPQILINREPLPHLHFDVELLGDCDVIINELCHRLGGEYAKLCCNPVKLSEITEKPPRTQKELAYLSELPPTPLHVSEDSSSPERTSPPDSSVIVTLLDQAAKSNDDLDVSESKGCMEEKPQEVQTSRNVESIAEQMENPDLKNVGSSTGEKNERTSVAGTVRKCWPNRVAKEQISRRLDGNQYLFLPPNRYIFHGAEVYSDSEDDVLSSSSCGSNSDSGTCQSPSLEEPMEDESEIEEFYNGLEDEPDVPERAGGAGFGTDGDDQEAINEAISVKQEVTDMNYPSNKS
# assay.details: Inhibition of hexa-His-tagged recombinant human SIRT1 expressed in Escherichia coli BL21(DE3) using AMC-labeled Arg-His-Lys-Lys(ac) as substrate assessed as inhibition of deacetylation of peptide after 45 mins by fluorescence assay
measure.name: IC50 (µM)

Answered cases to consult:
>  <compound>
CC(Oc1ccccc1)c1nn2c(-c3ccco3)nnc2s1 (configuration not stated)

>  <unit>
µM

>  <IC50>
67.9

$$$$
>  <compound>
c1ccc(-c2nn3c(-c4ccco4)nnc3s2)nc1

>  <unit>
µM

>  <IC50>
3.5

$$$$

[A] c1ccc(Cc2nn3c(-c4ccco4)nnc3s2)cc1
[B] CCOc1cccc(-c2nn3c(-c4ccco4)nnc3s2)c1
Of the pair A and B , name the member with the lesser recorded IC50. Record your answer as the label of the chosen record.
B
(B: 19 µM, A: 37.9 µM)

[A] c1coc(-c2nn3c(-c4ccco4)nnc3s2)c1
[B] c1coc(-c2nnc3sc(-c4ccc5c(c4)OCCO5)nn23)c1
[C] Clc1ccc(Cc2nn3c(-c4ccco4)nnc3s2)cc1
Hey, can you sort those compounds up there by IC50, smallest first? Reply: labels, ordered per the request.
A, B, C

[a] Cc1ccc(-c2nn3c(-c4ccco4)nnc3s2)cc1
[b] CCOc1cc(-c2nn3c(-c4ccco4)nnc3s2)cc(OCC)c1OCC
Of the pair a and b , name the member with the lesser recorded IC50. Record your answer as the label of the chosen record.
a
